Listing of entries alongside the reported remaining amount after the degradation.
assay: Stability of prazole starting materials in phosphate buffer media at pH 6.8 and 8.0; conditions: buffer, 1 h, 0.5 µg/mL, pH 8
The response must be a number in % with no trailing unit.

# example entries with known answers
>  <compound>
Cc1c(OCC(F)(F)F)ccnc1C[S+]([O-])c1nc2ccccc2[nH]1 (stereo not shown)

>  <readout-label>
remaining amount after the degradation

>  <readout-units>
%

>  <endpoint-value>
93.5

$$$$
>  <compound>
COc1ccnc(C[S+]([O-])c2nc3cc(-n4cccc4)ccc3[nH]2)c1C (stereo not shown)

>  <readout-label>
remaining amount after the degradation

>  <readout-units>
%

>  <endpoint-value>
84.6

$$$$
>  <compound>
COCCCOc1ccnc(C[S+]([O-])c2nc3ccccc3[nH]2)c1C (stereo not shown) [Rabeprazole sodium, rabeprazole sodium]

>  <readout-label>
remaining amount after the degradation

>  <readout-units>
%

>  <endpoint-value>
88.5

$$$$

Please turn your attention to the following entry.
Per the records, this compound ( COc1ccnc(C[S+]([O-])c2nc3ccc(OC(F)F)cc3[nH]2)c1OC (stereo not shown) [Pantoprazole sodium, pantoprazole sodium] ) has remaining amount after the degradation equal to 91.4

###

assay: Stability of prazole starting materials in phosphate buffer media at pH 6.8 and 8.0; settings: buffer, 1 h, 0.5 µg/mL, pH 6.8
readout-label: remaining amount after the degradation
Give me the value, and tack the unit on after it.

# example entries with known answers
>  <compound>
Cc1c(OCC(F)(F)F)ccnc1C[S+]([O-])c1nc2ccccc2[nH]1 (stereo not shown)

>  <readout-label>
remaining amount after the degradation

>  <endpoint-value>
38.6%

$$$$
>  <compound>
COCCCOc1ccnc(C[S+]([O-])c2nc3ccccc3[nH]2)c1C (stereo not shown) [Rabeprazole sodium, rabeprazole sodium]

>  <readout-label>
remaining amount after the degradation

>  <endpoint-value>
24.6%

$$$$
>  <compound>
COc1ccnc(C[S+]([O-])c2nc3ccc(OC(F)F)cc3[nH]2)c1OC (stereo not shown) [Pantoprazole sodium, pantoprazole sodium]

>  <readout-label>
remaining amount after the degradation

>  <endpoint-value>
35.4%

$$$$

Per the records, this compound ( COc1ccnc(C[S+]([O-])c2nc3cc(-n4cccc4)ccc3[nH]2)c1C (stereo not shown) ) has remaining amount after the degradation equal to 20.7%

###

Listing of entries alongside the reported remaining amount after the degradation.
assay: Stability of prazole starting materials in phosphate buffer media at pH 6.8 and 8.0; conditions: buffer, 0.75 h, 0.5 µg/mL, pH 6.8
The response must be a number in % with no trailing unit.

# example entries with known answers
>  <compound>
Cc1c(OCC(F)(F)F)ccnc1C[S+]([O-])c1nc2ccccc2[nH]1 (stereo not shown)

>  <readout-units>
%

>  <remaining amount after the degradation>
53.6

$$$$
>  <compound>
COc1ccnc(C[S+]([O-])c2nc3cc(-n4cccc4)ccc3[nH]2)c1C (stereo not shown)

>  <readout-units>
%

>  <remaining amount after the degradation>
29.4

$$$$
>  <compound>
COc1ccnc(C[S+]([O-])c2nc3ccc(OC(F)F)cc3[nH]2)c1OC (stereo not shown) [Pantoprazole sodium, pantoprazole sodium]

>  <readout-units>
%

>  <remaining amount after the degradation>
50.2

$$$$

Please turn your attention to the following entry.
Per the records, this compound ( COCCCOc1ccnc(C[S+]([O-])c2nc3ccccc3[nH]2)c1C (stereo not shown) [Rabeprazole sodium, rabeprazole sodium] ) has remaining amount after the degradation equal to 38.6

###

assay: Stability of prazole starting materials in phosphate buffer media at pH 6.8 and 8.0; settings: buffer, 0.25 h, 0.5 µg/mL, pH 8
readout-label: remaining amount after the degradation (%)
The response must be a number in % with no trailing unit.

>  <molecule>
Cc1c(OCC(F)(F)F)ccnc1C[S+]([O-])c1nc2ccccc2[nH]1 (stereo not shown)

>  <remaining amount after the degradation [%]>
98.7

$$$$
>  <molecule>
COc1ccnc(C[S+]([O-])c2nc3ccc(OC(F)F)cc3[nH]2)c1OC (stereo not shown) [Pantoprazole sodium, pantoprazole sodium]

>  <remaining amount after the degradation [%]>
98.6

$$$$
>  <molecule>
COCCCOc1ccnc(C[S+]([O-])c2nc3ccccc3[nH]2)c1C (stereo not shown) [Rabeprazole sodium, rabeprazole sodium]

>  <remaining amount after the degradation [%]>
97.3

$$$$

Per the records, this molecule ( COc1ccnc(C[S+]([O-])c2nc3cc(-n4cccc4)ccc3[nH]2)c1C (stereo not shown) ) has remaining amount after the degradation equal to 94.3

###

assay: Stability of prazole starting materials in phosphate buffer media at pH 6.8 and 8.0; settings: buffer, 0.75 h, 0.5 µg/mL, pH 8
Listing of entries alongside the reported remaining amount after the degradation.
The response must be a number in % with no trailing unit.

# example entries with known answers
>  <molecule>
COc1ccnc(C[S+]([O-])c2nc3ccc(OC(F)F)cc3[nH]2)c1OC (stereo not shown) [Pantoprazole sodium, pantoprazole sodium]

>  <remaining amount after the degradation (%)>
92.2

$$$$
>  <molecule>
COCCCOc1ccnc(C[S+]([O-])c2nc3ccccc3[nH]2)c1C (stereo not shown) [Rabeprazole sodium, rabeprazole sodium]

>  <remaining amount after the degradation (%)>
90.6

$$$$
>  <molecule>
COc1ccnc(C[S+]([O-])c2nc3cc(-n4cccc4)ccc3[nH]2)c1C (stereo not shown)

>  <remaining amount after the degradation (%)>
88.6

$$$$

Please turn your attention to the following entry.
Per the records, this molecule ( Cc1c(OCC(F)(F)F)ccnc1C[S+]([O-])c1nc2ccccc2[nH]1 (stereo not shown) ) has remaining amount after the degradation equal to 95.3
